Provenance of the data: patent US20230263792A1

# MEASUREMENT_TARGET: KIT (L576P) (Homo sapiens, UniProt P10721, L576P)
# Construct: T7 phage fusion or DNA label for qPCR detection
# Sequence (P10721 26-976 L576P): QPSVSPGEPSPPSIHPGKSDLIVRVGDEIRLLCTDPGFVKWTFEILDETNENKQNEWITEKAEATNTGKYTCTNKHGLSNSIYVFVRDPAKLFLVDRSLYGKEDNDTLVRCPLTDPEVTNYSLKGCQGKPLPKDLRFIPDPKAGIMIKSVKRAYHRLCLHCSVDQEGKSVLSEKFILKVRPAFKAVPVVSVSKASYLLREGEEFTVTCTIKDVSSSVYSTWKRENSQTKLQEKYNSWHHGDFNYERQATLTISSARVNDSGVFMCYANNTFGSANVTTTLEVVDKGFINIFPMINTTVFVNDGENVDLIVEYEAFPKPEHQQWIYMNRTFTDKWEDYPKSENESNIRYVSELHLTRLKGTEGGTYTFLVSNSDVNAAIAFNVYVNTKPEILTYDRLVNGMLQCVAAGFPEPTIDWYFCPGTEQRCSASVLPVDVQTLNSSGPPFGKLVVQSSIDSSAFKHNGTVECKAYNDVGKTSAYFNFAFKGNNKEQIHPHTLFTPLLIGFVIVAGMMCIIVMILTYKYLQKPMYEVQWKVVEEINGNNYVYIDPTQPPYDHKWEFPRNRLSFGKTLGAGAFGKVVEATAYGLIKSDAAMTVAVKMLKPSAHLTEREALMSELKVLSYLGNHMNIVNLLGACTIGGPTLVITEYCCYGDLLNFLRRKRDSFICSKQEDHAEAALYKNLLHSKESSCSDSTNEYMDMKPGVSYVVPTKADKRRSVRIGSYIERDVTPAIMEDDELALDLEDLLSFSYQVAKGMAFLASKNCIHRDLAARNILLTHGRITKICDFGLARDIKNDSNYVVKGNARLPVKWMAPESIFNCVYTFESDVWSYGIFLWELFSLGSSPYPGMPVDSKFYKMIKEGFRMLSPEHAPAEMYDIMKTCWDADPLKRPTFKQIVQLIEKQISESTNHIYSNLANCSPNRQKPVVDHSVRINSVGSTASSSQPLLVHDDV
# PROTOCOL_SUMMARY: Kinase binding assay (Kd, qPCR detection)

COMPOUND: NC(=O)Nc1cc(C#Cc2cccc(F)c2)sc1C(=O)N[C@H]1CCCNC1 [PHI-101]
Kd, nM: 39

* * *

# MEASUREMENT_TARGET: KIT (D816V) (Homo sapiens, UniProt P10721, D816V)
# Construct: T7 phage fusion or DNA label for qPCR detection
# Sequence (P10721 26-976 D816V): as the sequence (P10721 26-976 L576P) above, with P551L, D791V counted along it
# PROTOCOL_SUMMARY: Kinase binding assay (Kd, qPCR detection)
pKd: −log10 of the molar value.
OBSERVABLE: pKd

MOLECULE: NC(=O)Nc1cc(C#Cc2cccc(F)c2)sc1C(=O)N[C@H]1CCCNC1 [PHI-101]
OBSERVABLE: pKd
OBSERVED_MEASUREMENT: 8.68

* * *

# MEASUREMENT_TARGET: KIT (V559D) (Homo sapiens, UniProt P10721, V559D)
# Construct: T7 phage fusion or DNA label for qPCR detection
# Sequence (P10721 26-976 V559D): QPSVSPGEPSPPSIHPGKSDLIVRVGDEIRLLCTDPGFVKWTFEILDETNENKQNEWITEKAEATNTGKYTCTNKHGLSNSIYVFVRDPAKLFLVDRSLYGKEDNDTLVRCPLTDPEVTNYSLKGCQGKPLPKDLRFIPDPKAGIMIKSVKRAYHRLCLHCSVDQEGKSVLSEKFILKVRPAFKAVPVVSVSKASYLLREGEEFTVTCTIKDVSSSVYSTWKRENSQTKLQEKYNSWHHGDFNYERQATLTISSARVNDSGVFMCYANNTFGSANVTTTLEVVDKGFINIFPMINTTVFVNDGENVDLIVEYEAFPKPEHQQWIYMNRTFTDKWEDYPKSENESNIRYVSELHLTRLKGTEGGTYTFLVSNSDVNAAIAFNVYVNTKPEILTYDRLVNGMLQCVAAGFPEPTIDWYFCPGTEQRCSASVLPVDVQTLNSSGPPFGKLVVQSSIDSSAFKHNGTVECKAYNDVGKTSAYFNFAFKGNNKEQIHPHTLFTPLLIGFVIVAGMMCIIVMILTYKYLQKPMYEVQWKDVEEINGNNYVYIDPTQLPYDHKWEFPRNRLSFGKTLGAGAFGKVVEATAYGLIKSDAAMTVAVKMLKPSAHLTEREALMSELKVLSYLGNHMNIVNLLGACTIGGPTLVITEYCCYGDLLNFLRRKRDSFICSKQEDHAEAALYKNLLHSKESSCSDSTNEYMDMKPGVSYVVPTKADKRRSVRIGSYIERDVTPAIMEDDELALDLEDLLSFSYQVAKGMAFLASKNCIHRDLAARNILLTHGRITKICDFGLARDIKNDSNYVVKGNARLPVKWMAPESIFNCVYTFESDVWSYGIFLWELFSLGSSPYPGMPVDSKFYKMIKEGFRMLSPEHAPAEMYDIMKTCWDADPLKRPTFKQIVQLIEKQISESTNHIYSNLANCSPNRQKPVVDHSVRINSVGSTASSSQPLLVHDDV
# PROTOCOL_SUMMARY: Kinase binding assay (Kd, qPCR detection)
pKd: −log10 of the molar value.

SMILES_REPRESENTATION: NC(=O)Nc1cc(C#Cc2cccc(F)c2)sc1C(=O)N[C@H]1CCCNC1
MEASUREMENT_TARGET: KIT (V559D) (Homo sapiens, UniProt P10721, V559D)
pKd: 7.80
